Tested on: Fusarium oxysporum
PROTOCOL SUMMARY: Antifungal activity against […] oxysporum CICC 41029 after 48 hrs by broth dilution assay
Format: functional
CONDITION LABEL: CICC 41029, 48 h
MEASURED ATTRIBUTE: MIC (mg/L)

Memo: CC(=O)N1CCN(c2ccc(OCC3COC(Cn4ccnc4)(c4ccc(Cl)cc4Cl)O3)cc2)CC1 (stereo unspecified) , reported MIC: 6.3

1: C/C=C(\C)[C@H](OC(C)=O)[C@H](C)C(=O)O[C@@]1(C)C(=O)C=C2C=C(C3=C(C)CCCC3=O)OC=C2C1=O
2: C/C=C(\C)[C@H](OC(C)=O)[C@H](C)C(=O)O[C@@]1(C)C(=O)C=C2C=C(c3c(C)cccc3O)OC=C2C1=O
3: C/C=C(\C)[C@H](OC(C)=O)[C@H](C)C(=O)O[C@@]1(C)C(=O)C2=COC(C3=C(C)CCCC3=O)=CC2=C(Cl)C1=O
# rank_down: sort by MIC, max first Give the labels in the order requested.
2, 1, 3

Just for reference, ChEMBL document CHEMBL4330165 is where these values come from.
